Where do these numbers come from? They come from patent US9994555B2.

- System: Raji (Burkitt's) lymphoma cells
- testDetails: MTT assay for 4-day viability of Raji (Burkitt's) lymphoma cells
- Format: cell-based
- testSettings: Homo sapiens, 96 h, Raji (Burkitt's) lymphoma cells highly expressing MCT1, estimated EC50 given as bin, read-out: approximate potency (EC50)
- Source text: Specific Examples of compounds of the invention, with estimated EC50 values determined using an MTT assay for 4-day viability of Raji (Burkitt's) lymphoma cells, a cell line known to highly express MCT1 and to be sensitive to small molecule MCT inhibitors,^4 are shown in Table 8. […]
measurementLabel: EC50

Entry `CC(C)c1cc(=O)c2c(-c3cccc(CCO)c3)cc(OCc3cccc4ccccc34)cc2o1` : reported EC50 = ?
1000 to 10000 nM

Entry `CC(C)c1cc(=O)c2c(-c3ccccc3CO)cc(OCc3cccc4ccccc34)cc2o1` : reported EC50 = ?
≥ 10000 nM

Entry `CC(C)c1cc(=O)c2c(-c3cccc(CO)c3)cc(Oc3ccnc4ccccc34)cc2o1` : reported EC50 = ?
100 to 1000 nM

Entry O=c1cc(-c2ccccc2)oc2cc(Oc3ccnc4ccccc34)cc(OCC(O)CO)c12 (centres unmarked) : reported EC50 = ?
≥ 10000 nM

Entry `O=c1cc(C2CC2)oc2cc(OCc3cccnc3C(F)(F)F)cc(OCc3ccccc3CO)c12` : reported EC50 = ?
≤ 100 nM

Entry `Cc1cc(=O)c2c(OCCCCO)cc(OCc3cccc4ccccc34)cc2o1` : reported EC50 = ?
1000 to 10000 nM

Entry `CC(C)c1cc(=O)c2c(OCc3ccccc3CO)cc(OCc3cccnc3C(F)(F)F)cc2o1` : reported EC50 = ?
≤ 100 nM

Entry `Cc1cc(=O)c2c(OCCCO)cc(OCc3cccc4ccccc34)cc2o1` : reported EC50 = ?
1000 to 10000 nM

Entry `CC(C)c1cc(=O)c2c(NCCCO)cc(OCc3cccc4ccccc34)cc2o1` : reported EC50 = ?
1000 to 10000 nM

Entry `CC(C)c1cc(=O)c2c(OCc3ccccc3CO)cc(OCc3cncs3)cc2o1` : reported EC50 = ?
100 to 1000 nM

Entry `CC(C)c1cc(=O)c2c(CCCCCO)cc(OCc3cccc4ccccc34)cc2o1` : reported EC50 = ?
1000 to 10000 nM

Entry `CC(C)c1cc(=O)c2c(-c3cccc(CO)c3F)cc(OCc3cccc4ccccc34)cc2o1` : reported EC50 = ?
≥ 10000 nM

Entry `CC(C)c1cc(=O)c2c(OCCCCO)cc(OCc3ccnc4ccccc34)cc2o1` : reported EC50 = ?
≤ 100 nM

Entry `CC(C)c1cc(=O)c2c(NCCCCO)cc(OCc3cccc4ccccc34)cc2o1` : reported EC50 = ?
1000 to 10000 nM

Entry `CC(C)c1cc(=O)c2c(OCc3ccccc3CO)cc(OCc3cccc4ccccc34)cc2o1` : reported EC50 = ?
≤ 100 nM

Entry `Cc1cc(=O)c2c(OCc3ccccc3CO)cc(Oc3ccnc4ccccc34)cc2o1` : reported EC50 = ?
100 to 1000 nM

Entry `CC(C)c1cc(=O)c2c(OCc3ccccc3CO)cc(OCc3cncnc3)cc2o1` : reported EC50 = ?
100 to 1000 nM
